FYI, the data here is from PubChem BioAssay (Tox21).

# protocolSummary: qHTS assay to identify small molecule agonists of the vitamin D receptor (VDR) signaling pathway - cell viability counter screen (AID 743224); also: nearly all actives have a fitted effect of over 50% in size; also: potency is read from the fitted curve at half-maximal effect
# runConditions: VDR-bla HEK293T viability, CellTiter-Glo luminescence, 16 h; series mostly up to 62.6 µM
Inconclusive results are not listed. Activity calls are given as the source filed them. Calls follow the shape of the dose curve; as a rule, active = well fitted cell-killing curve with a large enough effect in the repeat runs; inconclusive = weak or mixed curves, or effect the other way; inactive = no such curve, though single readings can be large or run the other way.
measuredMetric: Potency

                                   compound  measuredmetric            result
0  CCCCC(CC)COC(=O)CCCCCCCCC(=O)OCC(CC)CCCC (centres undefined)         Potency          inactive
1        O=C(OCCCCCCOC(=O)c1ccccc1)c1ccccc1         Potency  43.6 µM (active)
2          O=[N+]([O-])c1ccc(NCCO)c(OCCO)c1         Potency          inactive
3  CCc1c(C(=O)NN2CCCCC2)nn(-c2ccc(Cl)cc2Cl)c1-c1ccc(Br)cc1         Potency  19.5 µM (active)
4              CCCCCCCC/C=C\CCCCCCCC(=O)OCC         Potency          inactive
5                       Cc1ncc(CO)c(C=O)c1O         Potency          inactive
6                 COc1ccc(C)cc1[N+](=O)[O-]         Potency          inactive
7  O=C(O)C1(C(=O)O)CCC1.[NH2-].[NH2-].[Pt+2]         Potency          inactive
8  O=C1c2ccccc2S(=O)(=O)N1CCCCN1CCN(c2ncccn2)CC1         Potency          inactive

====

# protocolSummary: qHTS assay to identify small molecule agonists of H2AX - cell viability counter screen (AID 1224847); also: nearly all actives have a fitted effect of over 30% in size; also: potency is read from the fitted curve at half-maximal effect
# runConditions: CHO-K1 viability, CellTiter-Glo luminescence, 3 h; series mostly up to 154 µM
Inconclusive results are not listed. The source made the active and inactive calls. Calls follow the shape of the full dose curve.
measuredMetric: Potency

                                    molecule  measuredmetric            result
 0                      C=CCOC(=O)CCC1CCCCC1         Potency          inactive
 1     CC(C)(COC(=O)c1ccccc1)COC(=O)c1ccccc1         Potency          inactive
 2         OC(C#CCN1CCCC1)(c1ccccc1)c1ccccc1         Potency          inactive
 3             C[Si](C)(CCCN)O[Si](C)(C)CCCN         Potency          inactive
 4                  c1ccc(CNCCNCc2ccccc2)cc1         Potency          inactive
 5  CCCCC(CC)COC(=O)COc1ccc(Cl)cc1Cl (stereo not given)         Potency          inactive
 6       Nc1c(CC(=O)O)cccc1C(=O)c1ccc(Br)cc1         Potency          inactive
 7      Cc1cccc(C)c1NC(=O)CN(CC(=O)O)CC(=O)O         Potency          inactive
 8                        O=C(O)CC(=O)C(=O)O         Potency          inactive
 9  CCCCC/C=C\C/C=C\CCCCCCCC(=O)NC(C)c1ccccc1 (stereo not given)         Potency          inactive
10  O=C(NCC1CN(c2ccc(N3CCOCC3=O)cc2)C(=O)O1)c1ccc(Cl)s1 (stereo not given)         Potency          inactive
11                          O=C(O)c1ccccc1Cl         Potency          inactive
12  CC[N+]1(CC)CCC(=C(c2ccccc2)c2ccccc2)C1C (stereo not given)         Potency          inactive
13                      CCCCCCCCCOS(=O)(=O)O         Potency          inactive
14                           CCNc1cc(O)ccc1C         Potency          inactive
15                                  CCCCCCCN         Potency          inactive
16              CC(=O)c1cccc([N+](=O)[O-])c1         Potency          inactive
17  C[N+](C)(C)CCOC(=O)CCC(=O)OCC[N+](C)(C)C         Potency          inactive
18  O=C1OC(=O)C2C3C=CC(C3)C12 (stereo not given)         Potency          inactive
19                       Cc1ncc(CO)c(C=O)c1O         Potency          inactive
20  CCN(CC)c1ccc2c(-c3ccccc3C(=O)O)c3ccc(=[N+](CC)CC)cc-3oc2c1         Potency  40.1 µM (active)
21                CCCCCCCCCc1ccc(OCCOCCO)cc1         Potency  37.6 µM (active)
22                     CC(C)(CO)[N+](=O)[O-]         Potency          inactive
23                        CN(C)c1ccc(CCO)cc1         Potency          inactive
24                         C=C(C)C(=O)OCCOCC         Potency          inactive
25                      C=CC(=O)OCCOc1ccccc1         Potency          inactive
26  CCN(CC)CCNc1ccc(CNC=O)c2sc3ccc(OC)cc3c(=O)c12         Potency          inactive
27  CCOC(=O)C1=C[C@]2(CC)CCCN3CCc4c(n1c1ccccc41)[C@@H]32         Potency          inactive
28  CCCCCCCCO[C@@H]1O[C@H](CO)[C@@H](O)[C@H](O)[C@H]1O         Potency          inactive
29                                  COC(C)OC         Potency          inactive
30  CCCCc1nc2cccnc2n1Cc1ccc(-c2ccccc2-c2nnn[nH]2)cc1         Potency          inactive
31  CCN(CC)c1ccc(C(=C2C=CC(=[N+](CC)CC)C=C2)c2cc(S(=O)(=O)O)ccc2S(=O)(=O)[O-])cc1         Potency    22 µM (active)
32  CCc1cc(C2=C(C(=O)O)N(c3ccccc3C(F)(F)F)S(=O)(=O)c3ccccc32)cc2c1OCO2         Potency          inactive
33  CN1C[C@H]2c3ccccc3Oc3ccc(Cl)cc3[C@@H]2C1         Potency          inactive
34      Clc1ccc(Cn2c(CN3CCCC3)nc3ccccc32)cc1         Potency          inactive
35  CC(=O)OC[C@H]1O[C@@H](n2ncc(=O)[nH]c2=O)[C@H](OC(C)=O)[C@@H]1OC(C)=O         Potency          inactive
36                CNCCCN1c2ccccc2CCc2ccccc21         Potency          inactive
37  CC(C)Cc1ccc(C(C)C(=O)OCc2ccccn2)cc1 (stereo not given)         Potency          inactive
38                CN(C)CCN(Cc1ccsc1)c1ccccn1         Potency          inactive
39                 COc1cc2nc(Cl)nc(N)c2cc1OC         Potency          inactive
40                        CC1=CC=C(C(C)C)CC1         Potency          inactive
41  Cc1ccc(C(C)OC(=O)C2(C)CCC(C(=O)O)C2(C)C)cc1 (stereo not given)         Potency          inactive
42    OCCN1CCN(CCCN2c3ccccc3C=Cc3ccccc32)CC1         Potency          inactive
43         Nc1ccc([N+](=O)[O-])c(C(F)(F)F)c1         Potency          inactive
44  O=C(Nc1ccc(S(=O)(=O)N2CCOCC2)cc1)c1cc(Cl)ccc1NS(=O)(=O)c1ccc(Cl)s1         Potency          inactive
45            CN1CCC(N(Cc2cccs2)c2ccccc2)CC1         Potency          inactive
46  CCCCCCOC(=O)NC(=N)c1ccc(NCc2nc3cc(C(=O)N(CCC(=O)OCC)c4ccccn4)ccc3n2C)cc1         Potency          inactive
47                CCC(C)O (stereo not given)         Potency          inactive
48                               CCC(C)(C)CC         Potency          inactive
49                              NCCCN1CCOCC1         Potency          inactive
